target: urease (Canavalia ensiformis, UniProt P07374); assay: In vitro urease inhibition assay; format: biochemical
Sequence (P07374 whole entry, looked up): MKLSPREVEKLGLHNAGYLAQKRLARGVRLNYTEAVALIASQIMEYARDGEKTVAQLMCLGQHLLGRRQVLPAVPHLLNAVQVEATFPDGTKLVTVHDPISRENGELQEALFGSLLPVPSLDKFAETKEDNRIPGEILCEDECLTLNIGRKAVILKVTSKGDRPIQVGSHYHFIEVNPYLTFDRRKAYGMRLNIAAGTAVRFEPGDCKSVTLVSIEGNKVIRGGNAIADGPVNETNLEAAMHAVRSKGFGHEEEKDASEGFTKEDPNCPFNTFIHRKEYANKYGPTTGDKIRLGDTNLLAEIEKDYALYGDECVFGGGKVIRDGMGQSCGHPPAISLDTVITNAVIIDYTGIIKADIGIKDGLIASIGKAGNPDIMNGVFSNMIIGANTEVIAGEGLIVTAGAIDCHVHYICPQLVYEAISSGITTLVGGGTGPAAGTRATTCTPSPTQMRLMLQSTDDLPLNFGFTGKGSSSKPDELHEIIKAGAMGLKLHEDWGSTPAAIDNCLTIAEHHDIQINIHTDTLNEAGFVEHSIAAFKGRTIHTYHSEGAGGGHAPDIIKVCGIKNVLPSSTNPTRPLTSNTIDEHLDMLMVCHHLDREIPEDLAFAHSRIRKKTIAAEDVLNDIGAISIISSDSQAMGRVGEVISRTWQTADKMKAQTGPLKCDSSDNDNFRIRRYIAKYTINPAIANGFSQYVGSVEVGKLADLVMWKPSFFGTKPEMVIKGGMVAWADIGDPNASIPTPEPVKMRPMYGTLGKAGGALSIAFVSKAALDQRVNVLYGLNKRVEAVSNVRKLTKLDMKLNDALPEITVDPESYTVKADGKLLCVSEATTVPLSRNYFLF
measured.property: IC50 (µM)

- CCOc1ccc(-c2nc3cc4ccccc4cc3[nH]2)cc1OC [Compound 2]: 73.5
- COc1ccc(Br)c(-c2nc3cc4ccccc4cc3[nH]2)c1O [Compound 11]: 42.4
- COc1ccc(-c2nc3cc4ccccc4cc3[nH]2)cc1OC [Compound 9]: 67.1
- Oc1ccc(Cl)cc1-c1nc2cc3ccccc3cc2[nH]1 [Compound 4]: 34.2
- c1ccc2cc3[nH]c(-c4c[nH]c5ccccc45)nc3cc2c1 [Compound 1]: 92.3
- COc1cc(-c2nc3cc4ccccc4cc3[nH]2)ccc1OC(C)=O [Compound 3]: 56.3
- c1csc(-c2nc3cc4ccccc4cc3[nH]2)c1 [Compound 8]: 86.4
